TESTED_ON: acetylcholinesterase from electric eel (Electrophorus electricus)
Construct: purchased Sigma Chemical; host or cells: electric eel
ASSAY_DETAILS: biochemical
TEST_PARAMETERS: contact time 10'; read-out: Cholinesterase Inhibition IC50, AChE E.eel
ENDPOINT_LABEL: IC50 (nM)
Answers are plain numbers, in nM.

Q. Give acetylcholinesterase from electric eel (Electrophorus electricus) IC50 for CCCCCCCNC(=O)Oc1ccc2c(c1)[C@]1(C)CCN(C)[C@@H]1N2C [MF 201, heptylcarbamic ester of eseroline, reference compound]
A. 550

====

TESTED_ON: acetylcholinesterase from human red blood cells (Homo sapiens, UniProt P22303)
Construct: purchased Sigma Chemical; host or cells: human erythrocyte
Sequence (P22303 32-617 isoform P22303-2 limits assumed): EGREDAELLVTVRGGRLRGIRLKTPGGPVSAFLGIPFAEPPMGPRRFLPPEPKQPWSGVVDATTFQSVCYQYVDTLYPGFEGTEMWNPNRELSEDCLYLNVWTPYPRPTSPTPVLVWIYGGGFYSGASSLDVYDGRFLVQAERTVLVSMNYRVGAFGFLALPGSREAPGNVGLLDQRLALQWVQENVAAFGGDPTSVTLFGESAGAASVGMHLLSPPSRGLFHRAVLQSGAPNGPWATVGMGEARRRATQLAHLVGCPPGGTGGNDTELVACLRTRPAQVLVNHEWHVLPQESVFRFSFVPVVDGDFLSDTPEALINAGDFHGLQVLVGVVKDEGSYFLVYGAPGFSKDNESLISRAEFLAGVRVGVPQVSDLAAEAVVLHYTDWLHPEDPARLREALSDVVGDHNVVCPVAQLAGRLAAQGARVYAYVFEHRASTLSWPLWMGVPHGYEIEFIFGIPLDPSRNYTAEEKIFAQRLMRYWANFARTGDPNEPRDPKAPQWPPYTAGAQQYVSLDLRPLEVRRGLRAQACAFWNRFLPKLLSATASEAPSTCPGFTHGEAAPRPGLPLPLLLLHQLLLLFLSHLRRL
ASSAY_DETAILS: Inhibition of acetylcholinesterase from human erythrocyte (Ellman colorimetric method)
Format: biochemical
TEST_PARAMETERS: Cholinesterase Inhibition IC50, AChE hRBC, contact time 30'
Exercise: state measured log10(IC50) for each of the compounds provided.
Give log10 of IC50, with IC50 taken in nM.

In the examples that follow, each entry is paired with its recorded log10(IC50).
# COMPOUND, log10(IC50)
measured = [
    ("CN1CC[C@@]2(C)c3cc(OC(=O)NCCCCCCCCCCCCN4CCOCC4)ccc3N(C)[C@@H]12 [MF 228, N-morpholinyldodecylcarbamoyleseroline]", 1.78),
    ("CN1CC[C@@]2(C)c3cc(OC(=O)NCCN4CCOCC4)ccc3N(C)[C@@H]12 [MF 214, N-morpholinylethylcarbamoyleseroline]", 2.15),
    ("CN1CC[C@@]2(C)c3cc(OC(=O)NCCCCCCCCN4CCOCC4)ccc3N(C)[C@@H]12 [MF 217, N-morpholinyloctylcarbamoyleseroline]", 1.88),
    ("CN1CC[C@@]2(C)c3cc(OC(=O)NCCCCCCCN4CCOCC4)ccc3N(C)[C@@H]12 [MF 224, N-morpholinylheptylcarbamoyleseroline]", 2.23),
    ("CCN(CC)CCCCCCCCNC(=O)Oc1ccc2c(c1)[C@]1(C)CCN(C)[C@@H]1N2C [MF 237]", 1.85),
]

# per-item lookup of log10(IC50); items listed below
1. CN1CCN(CCCCCCCCNC(=O)Oc2ccc3c(c2)[C@]2(C)CCN(C)[C@@H]2N3C)CC1 [MF 230]
2. CN1CC[C@@]2(C)c3cc(OC(=O)NCCCCCN4CCOCC4)ccc3N(C)[C@@H]12 [MF 225, N-morpholinylpentylcarbamoyleseroline]
3. CN1CC[C@@]2(C)c3cc(OC(=O)NCCCCCCN4CCOCC4)ccc3N(C)[C@@H]12 [MF 227, N-morpholinylhexylcarbamoyleseroline]

A.
1: 1.70; 2: 3.34; 3: 2.58

====

Give measured pIC50 for each item. Keep answers brief.
TESTED_ON: acetylcholinesterase from human red blood cells (Homo sapiens, UniProt P22303)
Construct: purchased Sigma Chemical; host or cells: human erythrocyte
ASSAY_DETAILS: Inhibition of acetylcholinesterase from human erythrocyte (Ellman colorimetric method)
Type: biochemical
TEST_PARAMETERS: Cholinesterase Inhibition IC50, AChE hRBC, contact time 10'
Give bare numbers, as −log10 of the molar value.

# SMILES_REPR, TESTED_ON, TEST_RESULT
rows = [
    ("CN1CCN(CCCCCCCCCCNC(=O)Oc2ccc3c(c2)[C@]2(C)CCN(C)[C@@H]2N3C)CC1", "acetylcholinesterase from human red blood cells (Homo sapiens, UniProt P22303)", 7.30),
    ("CCCCN1CCN(CCCCCCCCNC(=O)Oc2ccc3c(c2)[C@]2(C)CCN(C)[C@@H]2N3C)CC1", "acetylcholinesterase from human red blood cells (Homo sapiens, UniProt P22303)", 7.52),
    ("CC(=O)N1CCN(CCCCCCCCCCCCNC(=O)Oc2ccc3c(c2)[C@]2(C)CCN(C)[C@@H]2N3C)CC1", "acetylcholinesterase from human red blood cells (Homo sapiens, UniProt P22303)", 7.30),
    ("CN(CCCCCCCCN1CCOCC1)C(=O)Oc1ccc2c(c1)[C@]1(C)CCN(C)[C@@H]1N2C", "acetylcholinesterase from human red blood cells (Homo sapiens, UniProt P22303)", 5.13),
    ("CN1CC[C@@]2(C)c3cc(OC(=O)NCCCCCCCCN4CCC5(CC4)OCCO5)ccc3N(C)[C@@H]12", "acetylcholinesterase from human red blood cells (Homo sapiens, UniProt P22303)", 7.10),
]

--- query ---
Q. For acetylcholinesterase from human red blood cells (Homo sapiens, UniProt P22303), provide pIC50 of CCCN(CCC)CCCCCCCCCCCCNC(=O)Oc1ccc2c(c1)[C@]1(C)CCN(C)[C@@H]1N2C please.
A. 6.00

====

ASSAY_DETAILS: in vivo
TEST_PARAMETERS: rat, po
hey, just use MET if measured LD50 is less than 20 mg/kg, otherwise NOT MET

Q. Check if LD50 falls below 20 mg/kg for CN1CC[C@@]2(C)c3cc(OC(=O)NCCCCCCCCCCN4CCCCC4)ccc3N(C)[C@@H]12 [MF 248] .
A. MET

Q. I wonder whether CCCN(CCC)CCCCCCCCNC(=O)Oc1ccc2c(c1)[C@]1(C)CCN(C)[C@@H]1N2C [MF 256] has LD50 below 20 mg/kg. Can you tell?
A. MET

====

TESTED_ON: acetylcholinesterase from human red blood cells (Homo sapiens, UniProt P22303)
Construct: purchased Sigma Chemical; host or cells: human erythrocyte
ASSAY_DETAILS: Inhibition of acetylcholinesterase from human erythrocyte (Ellman colorimetric method)
Type: biochemical
TEST_PARAMETERS: read-out: Cholinesterase Inhibition IC50, AChE hRBC
ENDPOINT_LABEL: IC50
For clarity, give the value followed by its unit.

Q. Look up IC50: CCCCCCCNC(=O)Oc1ccc2c(c1)[C@]1(C)CCN(C)[C@@H]1N2C [MF 201, heptylcarbamic ester of eseroline, reference compound]
A. 290 nM

====

For each entry below, report its IC50 value.
TESTED_ON: acetylcholinesterase from electric eel (Electrophorus electricus, UniProt O42275)
Construct: purchased Sigma Chemical; host or cells: electric eel
Sequence (O42275 24-633): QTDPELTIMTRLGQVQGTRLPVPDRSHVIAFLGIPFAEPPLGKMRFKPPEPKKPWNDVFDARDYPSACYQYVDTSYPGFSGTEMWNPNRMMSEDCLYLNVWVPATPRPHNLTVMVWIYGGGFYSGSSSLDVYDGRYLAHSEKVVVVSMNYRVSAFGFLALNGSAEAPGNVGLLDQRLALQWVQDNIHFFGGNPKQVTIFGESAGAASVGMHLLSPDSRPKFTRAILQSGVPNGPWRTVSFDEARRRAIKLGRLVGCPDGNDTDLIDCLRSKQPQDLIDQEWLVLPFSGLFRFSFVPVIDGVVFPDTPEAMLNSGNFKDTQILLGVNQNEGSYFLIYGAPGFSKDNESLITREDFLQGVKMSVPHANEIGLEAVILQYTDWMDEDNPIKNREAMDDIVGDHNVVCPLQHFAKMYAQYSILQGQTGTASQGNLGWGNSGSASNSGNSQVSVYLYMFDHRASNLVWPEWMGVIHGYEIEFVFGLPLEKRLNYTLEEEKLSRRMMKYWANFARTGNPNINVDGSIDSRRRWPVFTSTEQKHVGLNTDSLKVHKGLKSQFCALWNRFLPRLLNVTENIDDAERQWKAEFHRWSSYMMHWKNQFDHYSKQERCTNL
ASSAY_DETAILS: biochemical
TEST_PARAMETERS: Cholinesterase Inhibition IC50, AChE E.eel, contact time 10'
Answers are plain numbers, in nM.

# SMILES_REPR, TESTED_ON, UNIT_ANNOTATION, IC50
data = [
    ("CN1CC[C@@]2(C)c3cc(OC(=O)NCCCCCCN4CCOCC4)ccc3N(C)[C@@H]12", "acetylcholinesterase from electric eel (Electrophorus electricus, UniProt O42275)", "nM", 12000),
    ("CN1CC[C@@]2(C)c3cc(OC(=O)NCCCCCCCCCCN4CCOCC4)ccc3N(C)[C@@H]12", "acetylcholinesterase from electric eel (Electrophorus electricus, UniProt O42275)", "nM", 60),
    ("CN1CCN(CCCCCCCCCCCCNC(=O)Oc2ccc3c(c2)[C@]2(C)CCN(C)[C@@H]2N3C)CC1", "acetylcholinesterase from electric eel (Electrophorus electricus, UniProt O42275)", "nM", 40),
    ("CN1CC[C@@]2(C)c3cc(OC(=O)NCCCCCCCCCCCN4CCOCC4)ccc3N(C)[C@@H]12", "acetylcholinesterase from electric eel (Electrophorus electricus, UniProt O42275)", "nM", 70),
    ("CN1CC[C@@]2(C)c3cc(OC(=O)NCCCCCCCCN4CCOCC4)ccc3N(C)[C@@H]12", "acetylcholinesterase from electric eel (Electrophorus electricus, UniProt O42275)", "nM", 330),
    ("CN1CC[C@@]2(C)c3cc(OC(=O)NCCCCCN4CCOCC4)ccc3N(C)[C@@H]12", "acetylcholinesterase from electric eel (Electrophorus electricus, UniProt O42275)", "nM", 330000),
]

The following compounds each have a reported value; give each one's IC50.
1. CN1CCN(CCCCCCCCNC(=O)Oc2ccc3c(c2)[C@]2(C)CCN(C)[C@@H]2N3C)CC1
2. CN1CC[C@@]2(C)c3cc(OC(=O)NCCCCCCCCCCCCN4CCOCC4)ccc3N(C)[C@@H]12
3. CN1CC[C@@]2(C)c3cc(OC(=O)NCCCCCCCN4CCOCC4)ccc3N(C)[C@@H]12

A.
[200, 70, 1600]

Q. Query: IC50; subject: CCN(CC)CCCCCCCCNC(=O)Oc1ccc2c(c1)[C@]1(C)CCN(C)[C@@H]1N2C
A. 340

====

Would you kindly list IC50 for each of these compounds?
TESTED_ON: acetylcholinesterase from human red blood cells (Homo sapiens)
Construct: purchased Sigma Chemical; host or cells: human erythrocyte
ASSAY_DETAILS: Inhibition of acetylcholinesterase from human erythrocyte (Ellman colorimetric method)
Format: biochemical
TEST_PARAMETERS: Cholinesterase Inhibition IC50, AChE hRBC, contact time 10'
Numbers only, in nM.

Illustrative cases are given below, each with its answer.
# COMPOUND, TESTED_ON, IC50 / nM
measured = [
    ("CN1CCN(CCCCCCCCNC(=O)Oc2ccc3c(c2)[C@]2(C)CCN(C)[C@@H]2N3C)CC1 [MF 230]", "acetylcholinesterase from human red blood cells (Homo sapiens)", 30),
    ("CN1CC[C@@]2(C)c3cc(OC(=O)NCCCCCCCCN4CCN(Cc5ccccc5)CC4)ccc3N(C)[C@@H]12 [MF 266]", "acetylcholinesterase from human red blood cells (Homo sapiens)", 70),
    ("CN1CC[C@@]2(C)c3cc(OC(=O)NCCCCCCCCCCN4CCCCC4)ccc3N(C)[C@@H]12 [MF 248]", "acetylcholinesterase from human red blood cells (Homo sapiens)", 19),
]

Alright, here's another compound for you.
Q. Field request: IC50 | item: CN1CC[C@@]2(C)c3cc(OC(=O)NCCCCCCCCCCN4CCCC4)ccc3N(C)[C@@H]12 [MF 253]
A. 30
